Values compiled from paper PMC4552634.

# Test system: P. falciparum stage V gametocytes
# Set-up: BacTiter-Glo ATP luminescence viability of purified stage V gametocytes in 384-well plates, per cent inhibition versus DMSO
# TEST PARAMETERS: 48 h, 5 µM; inhibitor
In all, about 13,000 compounds went through this assay and about 3,200 (25%) showed an effect of 50% or more. This is one part of the list.
If the reported % Inhibition equals or exceeds 20%, assign t. If not, assign f.

Reference set, count: 3
INSERT INTO assay_data (molecule, assigned_label) VALUES
  ('CCCC/C=C(\Cl)c1ccc(O)c2c1C[C@H]1C[C@H]3[C@H](N(C)C)C(=O)C(C(N)=O)=C(O)[C@@]3(O)C(=O)C1=C2O [TCMDC-138656]', 't'),
  ('CCCCCCN1CCCN(Cc2cccc(C(=O)Nc3ccc(C(C)(C)C)cc3)c2)CC1 [TCMDC-135993]', 'f'),
  ('NC1CCN(c2nc(NCCCc3ccc(O)cc3)nc(NCc3ccccc3-c3ccccc3)n2)CC1 [TCMDC-133390]', 't');

Req: Is % Inhibition at least 20%? Consider O=C(c1cc(-c2ccccc2)n[nH]1)N1CCN(S(=O)(=O)c2ccc(Cl)s2)CC1 [TCMDC-124697]
Resp: t

Req: Proceed to CC(C)CNCc1ccc(-c2ccccc2CN(C(=O)NCCc2ccccc2)C2CCN(Cc3ccccc3)CC2)cc1 [TCMDC-140609]
Resp: t
